Biological target: CRTH2 (Homo sapiens, UniProt Q9Y5Y4)
Construct: prolactin (prolac) signal peptide (N); expressed in transfected cells; host or cells: 300-19 cells (transformed murine pre-B lymphocytes)
Sequence (Q9Y5Y4 whole entry): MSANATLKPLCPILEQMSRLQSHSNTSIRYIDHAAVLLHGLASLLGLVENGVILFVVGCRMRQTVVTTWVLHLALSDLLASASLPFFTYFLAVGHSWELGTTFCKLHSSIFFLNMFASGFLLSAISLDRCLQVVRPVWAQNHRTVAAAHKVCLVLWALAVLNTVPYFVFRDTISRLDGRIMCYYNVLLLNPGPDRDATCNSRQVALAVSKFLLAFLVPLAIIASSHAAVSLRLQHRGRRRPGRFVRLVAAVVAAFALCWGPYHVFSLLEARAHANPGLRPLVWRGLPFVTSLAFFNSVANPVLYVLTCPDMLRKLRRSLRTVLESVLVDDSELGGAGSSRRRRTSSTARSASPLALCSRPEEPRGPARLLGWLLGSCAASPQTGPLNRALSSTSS
Assay: Competition with 3H-PGD2 binding at the CRTH2 receptor (Examples 6-9)
Settings: control, cold PGD2, 8 trials
Measurement type: IC50 (µM)

CCCCC[C@H](O)/C=C/[C@H]1C(=O)C[C@H](O)[C@@H]1C/C=C\CCCC(=O)O [PGD2, prostaglandin D2]: 0.0107

Numbers sourced from patent US6878522B2.
